testedTarget: D4 receptor (Homo sapiens, UniProt P21917)
Sequence (P21917 whole entry): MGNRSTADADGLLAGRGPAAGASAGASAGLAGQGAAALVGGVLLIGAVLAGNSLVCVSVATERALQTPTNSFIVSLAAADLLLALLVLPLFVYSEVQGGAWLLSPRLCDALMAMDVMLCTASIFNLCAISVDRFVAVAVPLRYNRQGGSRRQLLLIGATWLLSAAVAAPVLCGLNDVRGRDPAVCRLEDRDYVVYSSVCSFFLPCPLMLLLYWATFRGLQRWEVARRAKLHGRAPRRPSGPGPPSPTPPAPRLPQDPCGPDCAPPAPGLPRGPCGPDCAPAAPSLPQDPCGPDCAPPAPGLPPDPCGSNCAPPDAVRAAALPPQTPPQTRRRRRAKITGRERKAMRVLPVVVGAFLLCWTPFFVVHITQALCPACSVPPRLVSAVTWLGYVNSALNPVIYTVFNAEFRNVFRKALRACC
assayComment: [14C] formate-labelled phospholipid methylation in CHO/D4 cells
details: CHO/D4 cells, absence of agonist; read-out: IC50 of inhibition of phospholipid methylation
measuredProperty: pIC50
Formally, pIC50 is defined as -log10 of the concentration c, with c in mol/L.

Entry CC(C)Oc1cccnc1N(C)C1CCN(Cc2ccccc2)CC1 under D4 receptor (Homo sapiens, UniProt P21917) had pIC50 of 9.70
